- measurement_target: human PRS protein (His-Avi-hEPRS (998-1512)) (Homo sapiens)
- Construct: to construct His-Avi-hEPRS (998-1512) expression plasmid; His tag (N); Avi tag (N); TEV cleavage site (ENLYFQG, then S; inferred from the forward primer hEPRS-TEV-NheF) (N); made in house; host or cells: E. coli BL21(DE3)
- Sequence (P07814 998-1512 limits assumed): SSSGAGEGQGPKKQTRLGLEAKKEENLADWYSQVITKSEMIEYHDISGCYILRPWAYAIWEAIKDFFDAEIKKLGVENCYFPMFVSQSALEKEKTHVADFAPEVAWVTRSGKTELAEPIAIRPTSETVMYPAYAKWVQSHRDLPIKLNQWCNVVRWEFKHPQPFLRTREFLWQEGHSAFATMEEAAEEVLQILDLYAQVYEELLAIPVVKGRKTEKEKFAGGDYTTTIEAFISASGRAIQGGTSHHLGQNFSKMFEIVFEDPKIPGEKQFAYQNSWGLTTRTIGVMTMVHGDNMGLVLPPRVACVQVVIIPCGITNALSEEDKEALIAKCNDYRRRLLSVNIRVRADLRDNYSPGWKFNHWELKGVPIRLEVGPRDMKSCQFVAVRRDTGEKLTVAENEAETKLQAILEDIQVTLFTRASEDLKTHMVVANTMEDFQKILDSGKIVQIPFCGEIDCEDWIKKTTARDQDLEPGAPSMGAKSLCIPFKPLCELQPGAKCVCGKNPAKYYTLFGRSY
- measurement_notes: PRS inhibitory activity ([32P]pyrophosphate exchange enzyme assay)
- Assay type: biochemical
- particulars: 300 nM test compound; read-out: inhibitory rate (%) of PRS
Listed here: items and their measured inhibition at 0.3 µM.
Note: unit % is implicit; provide only the numeric part.

See these solved cases before continuing.
Cn1cc(-c2cc(CNC(=O)c3nccc4nc(C5CCCC5)n(C)c34)ccn2)cn1	77
Cc1cc(N2CC[C@@](C#N)(C3CC3)C2=O)cc(C(=O)NCc2cc(F)cc(-c3ccc(=O)n(C)c3)c2)n1	100

Measured inhibition at 0.3 µM of Cc1cc(N2CCC(C#N)(CC3CC3)C2=O)cc(C(=O)NCc2cc(F)cc(-c3cnn(C)c3)c2)n1 (stereo not shown) : 91

Measured inhibition at 0.3 µM of Cn1cc(-c2cc(F)cc(CNC(=O)c3nccc4nc(C5CCCC5)n(CC(N)=O)c34)c2)cn1 : 102
